- method.summary: qHTS of pediatric cancer cell lines to identify multiple opportunities for drug repurposing: Primary screen for SK-N-SH cells (AID 1347098); note: nearly all actives have a fitted effect of over 65% in size
- condition.details: SK-N-SH viability, CellTiter-Glo luminescence, 48 h; series mostly up to 57 µM
Inconclusive results are not listed. Active and inactive are the calls of the source. Calls come from the whole dose curve; as a rule, active = well fitted cell-killing curve with a large enough effect; inconclusive = small, poorly fitted or top-dose-only effect; inactive = no such curve, though single readings can be large or run the other way.
Outcome codes: active, inactive

molecule=C[C@]12CC[C@H]3[C@@H](CCC4=CC(=O)CC[C@@]43C)[C@@H]1CC[C@@H]2C(=O)CO answer_label=inactive
molecule=NCCCC[C@H](N[C@@H](CCc1ccccc1)C(=O)O)C(=O)N1CCC[C@H]1C(=O)O answer_label=inactive
molecule=CC(C)NC[C@@H](O)COc1cccc2ccccc12 answer_label=inactive
molecule=COc1cc(/C=C/C(=O)O[C@H]2CC[C@]34C[C@]35CC[C@]3(C)[C@@H]([C@H](C)CCC=C(C)C)CC[C@@]3(C)[C@@H]5CC[C@H]4C2(C)C)ccc1O answer_label=inactive
molecule=C[C@@H]1C[C@H]2[C@@H]3CCC4=CC(=O)C=C[C@]4(C)[C@@]3(F)[C@@H](O)C[C@]2(C)[C@H]1C(=O)CO answer_label=inactive
molecule=N[C@H](Cc1c[nH]c2ccccc12)C(=O)O answer_label=inactive
molecule=CCCCc1nc(Cl)c(CO)n1Cc1ccc(-c2ccccc2-c2nn[nH]n2)cc1 answer_label=inactive
molecule=CC(C)(Oc1ccc(Cl)cc1)C(=O)O answer_label=inactive
molecule=COc1ccc(CCN2CCC(Nc3nc4ccccc4n3Cc3ccc(F)cc3)CC2)cc1 answer_label=active
molecule="CCCC(=O)Nc1ccc(OCC(O)CNC(C)C)c(C(C)=O)c1 (configuration not stated)" answer_label=inactive
molecule=Oc1c(I)cc(Cl)c2cccnc12 answer_label=active
molecule=N[C@@H](CCC(=O)N[C@@H](CS)C(=O)NCC(=O)O)C(=O)O answer_label=inactive
molecule=C=C1C[C@H]2[C@@H]3C=C(C)C4=CC(=O)CC[C@]4(C)[C@H]3CC[C@]2(C)[C@@]1(OC(C)=O)C(C)=O answer_label=inactive
molecule="CC(O)C(=O)O (configuration not stated)" answer_label=inactive
molecule=CCCCCCC[N+](CC)(CC)CCCCc1ccc(Cl)cc1 answer_label=active
molecule="COc1ccc(OC)c(C(O)CNC(=O)CN)c1 (configuration not stated)" answer_label=inactive
molecule=CN1CCN(CCCN2c3ccccc3Sc3ccc(S(=O)(=O)N(C)C)cc32)CC1 answer_label=active
molecule=O=c1ccc2ccccc2o1 answer_label=inactive
molecule=OCc1ccccc1O answer_label=inactive
molecule=Cc1cccn2c(=O)c(-c3nnn[nH]3)cnc12 answer_label=inactive
molecule=O=C1c2ccccc2C(=O)C1c1ccccc1 answer_label=inactive
molecule=Cc1ccc(Nc2c(F)cccc2Cl)c(CC(=O)O)c1 answer_label=inactive
molecule=CC1(C)O[C@@H]2C[C@H]3[C@@H]4C[C@H](F)C5=CC(=O)CC[C@]5(C)[C@H]4[C@@H](O)C[C@]3(C)[C@]2(C(=O)CO)O1 answer_label=inactive
molecule="CCCCCCCCCCCCCCCCCC(=O)OCC(O)CO (configuration not stated)" answer_label=inactive
molecule=CCCN1CCCC[C@H]1C(=O)Nc1c(C)cccc1C answer_label=inactive
molecule=O=C(CCCN1CCC(O)(c2ccc(Br)cc2)CC1)c1ccc(F)cc1 answer_label=inactive
molecule=C[C@H](O)C(=O)Nc1c(I)c(C(=O)NC(CO)CO)c(I)c(C(=O)NC(CO)CO)c1I answer_label=inactive
molecule=CC(C)(C(=O)c1cccnc1)c1cccnc1 answer_label=inactive
molecule="CC(=O)CC(c1ccc([N+](=O)[O-])cc1)c1c(O)c2ccccc2oc1=O (configuration not stated)" answer_label=inactive
molecule=Cc1cc(=O)n(-c2ccccc2)n1C answer_label=inactive
molecule=C[C@]12C=CC(=O)C=C1[C@@H](F)C[C@@H]1[C@@H]2[C@@H](O)C[C@@]2(C)[C@H]1CC[C@]2(O)C(=O)CO answer_label=inactive
molecule=OC(CCN1CCCCC1)(c1ccccc1)c1ccccc1 answer_label=inactive
molecule=O=c1[nH]c(=O)n([C@H]2CCCO2)cc1F answer_label=inactive
molecule=COc1cc(OC)cc(OC)c1 answer_label=inactive
molecule="CC(Cc1cccc(C(F)(F)F)c1)NCCOC(=O)c1ccccc1 (configuration not stated)" answer_label=inactive
molecule=C[C@H](CCC(=O)O)[C@H]1CC[C@H]2[C@@H]3C(=O)C[C@@H]4CC(=O)CC[C@]4(C)[C@H]3CC(=O)[C@]12C answer_label=inactive
molecule=NCCC(O)(P(=O)(O)O)P(=O)(O)O answer_label=inactive
molecule=O=C(COc1ccc(Cl)cc1)N1CCN(Cc2ccc3c(c2)OCO3)CC1 answer_label=inactive
molecule=CC(=O)[C@H]1CC[C@H]2[C@@H]3C[C@H](C)C4=CC(=O)CC[C@]4(C)[C@H]3[C@@H](O)C[C@]12C answer_label=inactive
molecule=COCc1c(C(C)C)nc(C(C)C)c(/C=C/[C@@H](O)C[C@@H](O)CC(=O)O)c1-c1ccc(F)cc1 answer_label=active
molecule=COc1cccc(OC)c1C(=O)N[C@@H]1C(=O)N2[C@@H]1SC(C)(C)[C@@H]2C(=O)O answer_label=inactive
molecule=Cc1onc(-c2c(Cl)cccc2Cl)c1C(=O)N[C@@H]1C(=O)N2[C@@H]1SC(C)(C)[C@@H]2C(=O)O answer_label=inactive
